target: EGFR (Homo sapiens)
Sequence (P00533 25-1210): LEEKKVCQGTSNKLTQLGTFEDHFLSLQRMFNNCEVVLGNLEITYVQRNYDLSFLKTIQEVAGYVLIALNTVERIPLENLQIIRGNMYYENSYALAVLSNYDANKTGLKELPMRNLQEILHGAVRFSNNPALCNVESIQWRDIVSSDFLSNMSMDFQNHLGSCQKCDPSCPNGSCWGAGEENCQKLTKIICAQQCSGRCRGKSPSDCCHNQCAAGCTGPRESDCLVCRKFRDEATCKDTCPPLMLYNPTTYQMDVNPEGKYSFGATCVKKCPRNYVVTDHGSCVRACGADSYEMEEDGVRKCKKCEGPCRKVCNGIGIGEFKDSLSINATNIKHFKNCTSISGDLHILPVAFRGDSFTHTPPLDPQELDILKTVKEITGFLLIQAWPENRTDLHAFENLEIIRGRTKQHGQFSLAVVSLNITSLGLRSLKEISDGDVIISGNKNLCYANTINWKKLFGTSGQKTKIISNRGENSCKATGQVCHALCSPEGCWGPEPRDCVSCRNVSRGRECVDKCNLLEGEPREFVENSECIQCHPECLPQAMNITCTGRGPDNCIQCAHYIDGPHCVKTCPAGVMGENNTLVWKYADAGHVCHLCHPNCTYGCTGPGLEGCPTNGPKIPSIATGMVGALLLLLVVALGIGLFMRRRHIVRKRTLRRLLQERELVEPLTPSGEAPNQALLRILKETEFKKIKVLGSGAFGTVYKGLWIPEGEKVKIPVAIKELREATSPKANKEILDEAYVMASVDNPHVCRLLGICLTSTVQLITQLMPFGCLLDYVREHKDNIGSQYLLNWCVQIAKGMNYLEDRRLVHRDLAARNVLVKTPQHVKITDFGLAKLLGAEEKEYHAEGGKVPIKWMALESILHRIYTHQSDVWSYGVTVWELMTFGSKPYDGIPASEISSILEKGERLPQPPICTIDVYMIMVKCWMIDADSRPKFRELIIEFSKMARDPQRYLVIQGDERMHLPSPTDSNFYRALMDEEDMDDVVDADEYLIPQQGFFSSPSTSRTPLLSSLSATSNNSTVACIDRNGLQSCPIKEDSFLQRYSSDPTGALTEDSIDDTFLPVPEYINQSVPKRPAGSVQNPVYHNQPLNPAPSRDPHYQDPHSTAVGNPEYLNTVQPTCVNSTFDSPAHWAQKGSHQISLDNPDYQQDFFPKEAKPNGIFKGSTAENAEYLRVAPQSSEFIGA
REPORTED ENDPOINT: IC50

INSERT INTO results (compound_string, value_observed) VALUES
  ('FC(F)(F)c1ccc(/C=C/c2nc(COc3ccc(CCCCn4ccnn4)cc3)co2)cc1', '> 25 µM');

---

target: Jak1 (Homo sapiens, UniProt P23458)
Sequence (P23458 whole entry): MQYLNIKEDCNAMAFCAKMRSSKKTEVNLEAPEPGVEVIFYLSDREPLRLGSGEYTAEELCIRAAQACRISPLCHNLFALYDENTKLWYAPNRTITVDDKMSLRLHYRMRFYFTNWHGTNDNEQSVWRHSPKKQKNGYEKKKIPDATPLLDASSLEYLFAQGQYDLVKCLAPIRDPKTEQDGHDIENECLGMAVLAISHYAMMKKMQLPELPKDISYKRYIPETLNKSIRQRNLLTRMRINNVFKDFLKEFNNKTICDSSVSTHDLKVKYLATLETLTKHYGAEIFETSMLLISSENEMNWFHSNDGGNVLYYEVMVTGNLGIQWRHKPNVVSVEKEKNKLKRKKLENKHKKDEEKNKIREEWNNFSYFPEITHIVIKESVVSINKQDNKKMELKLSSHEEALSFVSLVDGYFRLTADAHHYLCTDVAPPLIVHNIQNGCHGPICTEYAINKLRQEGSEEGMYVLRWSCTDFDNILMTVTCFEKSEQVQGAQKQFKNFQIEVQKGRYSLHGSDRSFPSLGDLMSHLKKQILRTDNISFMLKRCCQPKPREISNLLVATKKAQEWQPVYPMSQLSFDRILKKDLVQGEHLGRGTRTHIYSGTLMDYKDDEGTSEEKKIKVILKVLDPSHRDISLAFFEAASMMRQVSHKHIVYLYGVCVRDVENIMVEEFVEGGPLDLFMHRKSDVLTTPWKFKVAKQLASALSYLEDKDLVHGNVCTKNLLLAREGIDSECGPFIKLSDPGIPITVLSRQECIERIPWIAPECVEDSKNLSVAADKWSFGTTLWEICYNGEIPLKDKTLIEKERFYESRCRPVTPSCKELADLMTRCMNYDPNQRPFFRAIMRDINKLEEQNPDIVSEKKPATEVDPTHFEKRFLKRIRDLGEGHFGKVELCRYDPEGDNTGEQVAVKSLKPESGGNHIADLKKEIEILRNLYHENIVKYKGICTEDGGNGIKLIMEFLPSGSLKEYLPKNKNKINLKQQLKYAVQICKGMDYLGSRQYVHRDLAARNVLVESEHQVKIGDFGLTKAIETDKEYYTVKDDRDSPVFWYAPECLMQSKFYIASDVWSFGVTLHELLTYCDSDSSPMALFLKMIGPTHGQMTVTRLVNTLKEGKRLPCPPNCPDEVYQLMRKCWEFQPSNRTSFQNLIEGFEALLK
REPORTED ENDPOINT: IC50

INSERT INTO assay_data (compound, value_observed) VALUES
  ('FC(F)(F)c1ccc(/C=C/c2nc(COc3ccc(CCCCn4ccnn4)cc3)co2)cc1 [Compound B4]', '> 25 µM');

---

target: HER2 (Homo sapiens, UniProt P04626); test: Suppression of receptor tyrosine-phosphorylation in human breast cancer cells (intracellular HER2 phosphorylation, MCF-7, heregulin stimulation); type: cell-based; design: endogenous in cells; host or cells: MCF-7; details: MCF-7 cells; test compound 2 hours, then heregulin 0.8 μg/ml 5 minutes; read-out: Intracellular HER2 phosphorylation inhibition MCF-7 (IC50:μM)
Sequence (P04626 23-1255): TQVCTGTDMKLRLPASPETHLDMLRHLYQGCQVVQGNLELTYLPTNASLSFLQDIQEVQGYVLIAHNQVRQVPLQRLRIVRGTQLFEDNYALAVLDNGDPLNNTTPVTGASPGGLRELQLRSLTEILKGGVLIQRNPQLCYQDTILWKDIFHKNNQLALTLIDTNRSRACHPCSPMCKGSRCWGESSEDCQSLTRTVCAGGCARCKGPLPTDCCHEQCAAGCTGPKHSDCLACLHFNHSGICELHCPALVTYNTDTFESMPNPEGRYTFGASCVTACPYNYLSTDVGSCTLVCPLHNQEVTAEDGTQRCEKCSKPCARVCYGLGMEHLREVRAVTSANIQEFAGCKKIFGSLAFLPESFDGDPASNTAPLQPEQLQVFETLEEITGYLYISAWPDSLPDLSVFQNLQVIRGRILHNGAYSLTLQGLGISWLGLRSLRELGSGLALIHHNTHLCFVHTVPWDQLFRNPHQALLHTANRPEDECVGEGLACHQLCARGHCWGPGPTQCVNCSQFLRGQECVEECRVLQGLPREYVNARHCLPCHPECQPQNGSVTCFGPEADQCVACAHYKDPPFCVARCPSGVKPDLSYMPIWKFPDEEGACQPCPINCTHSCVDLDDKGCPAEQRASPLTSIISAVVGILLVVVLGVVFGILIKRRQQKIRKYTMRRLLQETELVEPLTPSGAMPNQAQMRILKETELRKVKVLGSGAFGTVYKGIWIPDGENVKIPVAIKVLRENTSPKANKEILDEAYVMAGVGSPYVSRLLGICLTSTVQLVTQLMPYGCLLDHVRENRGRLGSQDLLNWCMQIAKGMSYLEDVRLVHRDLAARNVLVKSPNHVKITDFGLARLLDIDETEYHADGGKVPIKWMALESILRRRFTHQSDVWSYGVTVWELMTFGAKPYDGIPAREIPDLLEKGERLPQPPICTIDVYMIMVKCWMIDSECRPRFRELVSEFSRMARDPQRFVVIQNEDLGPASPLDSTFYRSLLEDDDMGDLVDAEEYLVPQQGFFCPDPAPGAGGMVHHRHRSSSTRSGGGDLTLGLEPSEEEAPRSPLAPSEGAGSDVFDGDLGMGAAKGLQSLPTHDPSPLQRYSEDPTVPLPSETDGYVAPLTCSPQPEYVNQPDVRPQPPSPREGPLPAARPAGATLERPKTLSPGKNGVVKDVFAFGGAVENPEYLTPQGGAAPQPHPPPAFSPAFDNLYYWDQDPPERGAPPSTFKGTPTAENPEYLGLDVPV
REPORTED ENDPOINT: IC50 (µM)

INSERT INTO assay_data (molecule, reported_endpoint, value_observed) VALUES
  ('Cc1cccc(/C=C/c2nc(COc3ccc(CCCCc4c[nH]c(CC(O)CO)n4)cc3)co2)c1 (stereo not shown) [Compound B22]', 'IC50', 1.9);
